test system: CCRIS mutagenicity, Ames/micronucleus/aberration tests; assay: CCRIS mutagenicity studies; conditions: Test System: AMES SALMONELLA TYPHIMURIUM; Strain/Indicator: TA1537; Metabolic Activation: RAT, LIVER, S-9, AROCLOR 1254; Method: STANDARD PLATE
Calls of active or inactive are those of the source. The rule behind the calls is not given here.
In this exercise, the only acceptable responses are active, inactive

Field: example entries. Status: answers known.
OC/C=C/c1ccccc1
inactive
CNC(=O)Nc1ccccc1
inactive
COc1ccc(C(=O)n2ncc(Cl)c(Cl)c2=O)cc1
inactive

## Input // return assay outcome for Cc1nnc2n1-c1ccc(Cl)cc1C(c1ccccc1Cl)=NC2
## Output inactive

## Input // return assay outcome for C[C@]12CC[C@H](OC(=O)/C=C/c3cccc(N(CCCl)CCCl)c3)CC1=CC[C@@H]1[C@@H]2CC[C@]2(C)NC(=O)CC[C@@H]12
## Output inactive

## Input // return assay outcome for COc1ccc(-c2coc3cc(O)cc(O)c3c2=O)cc1
## Output inactive

## Input // return assay outcome for C=C(C)C(=O)OCC(CC)(COC(=O)C(=C)C)COC(=O)C(=C)C
## Output inactive

## Input // return assay outcome for CCOc1ccc(NC(C)=O)cc1N
## Output active

###

system: CCRIS mutagenicity, Ames/micronucleus/aberration tests; assay: CCRIS mutagenicity studies; conditions: Test System: AMES SALMONELLA TYPHIMURIUM; Strain/Indicator: TA100; Metabolic Activation: HAMSTER, LIVER, S-9, AROCLOR 1254 (10%); Method: PREINCUBATION
The source made the active and inactive calls. No rule for the calls is given here.
In this exercise, the only acceptable responses are true = active, false = inactive

Field: example entries. Status: answers known.
Cc1ccc(N=C=O)cc1N=C=O
true
C=CCNCC=C
false

## Input // return assay outcome for CC(=O)CC(=O)Nc1ccccc1
## Output false

## Input // return assay outcome for O=Cc1c(Cl)cccc1Cl
## Output false

## Input // return assay outcome for CCCCCCCCCCCCCC(=O)O
## Output false

## Input // return assay outcome for S=C=Nc1cccc2ccccc12
## Output false

## Input // return assay outcome for CC1=NN(c2ccccc2)C(=O)C1
## Output false

## Input // return assay outcome for Nc1nc(N)c2nc(-c3ccccc3)c(N)nc2n1
## Output false

## Input // return assay outcome for NO
## Output false

###

test system: CCRIS mutagenicity, Ames/micronucleus/aberration tests; test: CCRIS mutagenicity studies; details: Test System: AMES SALMONELLA TYPHIMURIUM; Strain/Indicator: TA100; Metabolic Activation: RAT, LIVER, S-9, PHENOBARBITAL; Method: STANDARD PLATE
Activity calls are given as the source filed them. No rule for the calls is given here.
In this exercise, the only acceptable responses are active, inactive

Field: example entries. Status: answers known.
CC(=O)Nc1cc2c(cc1[N+](=O)[O-])[nH]c1ccccc12
inactive
c1ccc(-c2cccc(-c3ccccn3)n2)nc1
active
C[C@@](Cc1ccc(O)c(O)c1)(NN)C(=O)O
active
O=c1c2c(O)cccc2oc2c3c(cc(O)c12)O[C@H]1OCC[C@@H]31
inactive
Nc1cc2[nH]c3ccccc3c2cc1[N+](=O)[O-]
active

## Input // return assay outcome for c1ccc(-c2cccnc2)nc1
## Output inactive

## Input // return assay outcome for CCc1c2ccccc2cc2ccc3ccccc3c12
## Output inactive

###

Test system: CCRIS mutagenicity, Ames/micronucleus/aberration tests
Assay: CCRIS mutagenicity studies
Conditions: Test System: AMES SALMONELLA TYPHIMURIUM; Strain/Indicator: TA97; Metabolic Activation: NONE; Method: PREINCUBATION
Source text: The CCRIS database contains chemical records with carcinogenicity, mutagenicity, tumor promotion, and tumor inhibition test results. It was developed by the National Cancer Institute (NCI). Data are derived from studies cited in primary journals, current awareness tools, NCI reports, and other sources. Test results have been reviewed by experts in carcinogenesis and mutagenesis. CCRIS provides historical information from the years 1985 - 2011. It is no longer updated. […]
Active and inactive are the calls of the source. The rule behind the calls is not given here.
endpoint name: mutagenic call

CC(=O)Nc1ccc(N)cc1
inactive; negative
Oc1cc(O)cc(O)c1
inactive; negative
C=CC(C)(O)CCC=C(C)C (configuration not stated)
inactive; negative
c1ccc2sc(SSc3nc4ccccc4s3)nc2c1
active; positive

## Input Name the recorded mutagenic call of the item [O]=[Mg] in your answer.
## Output inactive; negative

###

system: CCRIS mutagenicity, Ames/micronucleus/aberration tests; experiment: CCRIS mutagenicity studies; details: Test System: AMES SALMONELLA TYPHIMURIUM; Strain/Indicator: TA1537; Metabolic Activation: NONE; Method: PREINCUBATION
Active and inactive are the calls of the source. No rule for the calls is given here.
In this exercise, the only acceptable responses are true (1) (active), false (0) (inactive)

CC(C)Nc1ccc(Nc2ccccc2)cc1
false (0)
CCCCC(CC)COP(OCC(CC)CCCC)OCC(CC)CCCC (centres undefined)
false (0)
Cc1cc(-c2ccc(N=Nc3cc(S(=O)(=O)O)c4ccccc4c3N)c(C)c2)ccc1N=Nc1cc(S(=O)(=O)O)c2ccccc2c1N
false (0)
O=C(O)/C=C/c1ccccc1[N+](=O)[O-]
false (0)
O=C1OC(=O)c2ccccc21
false (0)
O=C(NO)c1ccccc1
true (1)
COC(C)(C)CC(C)=O
false (0)
CC1=NN(c2ccccc2)C(=O)C1
false (0)

## Input // return assay outcome for O=C1NC(=O)c2cc([N+](=O)[O-])ccc21
## Output true (1)

## Input // return assay outcome for C1COCOC1
## Output false (0)

## Input // return assay outcome for C=C(C)[C@H]1CC=C(C)C(=O)C1
## Output false (0)

## Input // return assay outcome for Nc1cc(Cl)ccc1O
## Output false (0)

## Input // return assay outcome for C=CC(=O)OCC(C)C
## Output false (0)

## Input // return assay outcome for CC(C)CC(=O)CC(C)C
## Output false (0)

###

system: CCRIS mutagenicity, Ames/micronucleus/aberration tests; test: CCRIS mutagenicity studies; details: Test System: AMES SALMONELLA TYPHIMURIUM; Strain/Indicator: TA100; Metabolic Activation: NONE; Method: STANDARD PLATE
Calls of active or inactive are those of the source. How the calls were made is not given here.
In this exercise, the only acceptable responses are active, inactive

Field: example entries. Status: answers known.
O=C(O)/C=C/c1ccccc1[N+](=O)[O-]
inactive
COc1nsc2c([N+](=O)[O-])cccc12
active
COc1cc(-c2ccc(N)c(OC)c2)ccc1N
inactive

## Input // return assay outcome for CC(=O)O[C@@H]1[C@@H](O)[C@H]2O[C@@H]3C=C(C)C(=O)[C@@H](O)[C@]3(CO)[C@]1(C)[C@]21CO1
## Output inactive

###

system: CCRIS mutagenicity, Ames/micronucleus/aberration tests; experiment: CCRIS mutagenicity studies; conditions: Test System: AMES SALMONELLA TYPHIMURIUM; Strain/Indicator: TA100; Metabolic Activation: S-9; Method: PREINCUBATION
The source made the active and inactive calls. No rule for the calls is given here.
In this exercise, the only acceptable responses are active, inactive

Field: example entries. Status: answers known.
CC[C@]1(O)C[C@@H]2CN(CCc3c([nH]c4ccccc34)[C@@](C(=O)OC)(c3cc4c(cc3OC)N(C)[C@H]3[C@@](O)(C(=O)OC)[C@H](OC(C)=O)[C@]5(CC)C=CCN6CC[C@]43[C@@H]65)C2)C1
inactive
Nc1cccc2cccnc12
active

Let's switch to this compound now.
## Input // return assay outcome for c1ccc(COc2cccc3cccnc23)cc1
## Output inactive

###

tested on: CCRIS mutagenicity, Ames/micronucleus/aberration tests; experiment: CCRIS mutagenicity studies; conditions: Test System: AMES SALMONELLA TYPHIMURIUM; Strain/Indicator: TA100; Metabolic Activation: NONE; Method: STANDARD PLATE
The source made the active and inactive calls. No rule for the calls is given here.
endpoint name: mutagenic call

CC(C)(C)NCC(O)COc1cccc2c1CCCC2=O (stereo unspecified)
inactive; negative
O=NN1CCCC1
inactive; negative
O=C(Nc1ccc2c(O)c(N=Nc3ccc(N=Nc4ccc(S(=O)(=O)O)cc4)cc3)c(S(=O)(=O)O)cc2c1)c1ccccc1
inactive; negative
Nc1ncnc2c1ncn2C(c1ccccc1)c1ccccc1
inactive; negative
COc1cc(C=O)ccc1O
inactive; negative

## Input Name the recorded mutagenic call of the item COCCOCCOP1(OCCOCCOC)=NP(OCCOCCOC)(OCCOCCOC)=NP(OCCOCCOC)(OCCOCCOC)=N1 in your answer.
## Output inactive; negative

## Input Name the recorded mutagenic call of the item CCCCOc1c(C(=O)NOC(C)=O)ccc2ccccc12 in your answer.
## Output active; positive

###

System: CCRIS mutagenicity, Ames/micronucleus/aberration tests
Assay: CCRIS mutagenicity studies
Conditions: Test System: AMES SALMONELLA TYPHIMURIUM; Strain/Indicator: TA1535; Metabolic Activation: NONE; Method: STANDARD PLATE
Description: The CCRIS database contains chemical records with carcinogenicity, mutagenicity, tumor promotion, and tumor inhibition test results. It was developed by the National Cancer Institute (NCI). Data are derived from studies cited in primary journals, current awareness tools, NCI reports, and other sources. Test results have been reviewed by experts in carcinogenesis and mutagenesis. CCRIS provides historical information from the years 1985 - 2011. It is no longer updated. […]
Calls of active or inactive are those of the source. The rule behind the calls is not given here.
In this exercise, the only acceptable responses are t (active), f (inactive)

Field: example entries. Status: answers known.
CC1=C2C(=CO[C@H](C)[C@H]2C)C(=O)C(C(=O)O)=C1O
f
COc1cc(-c2oc3cc(O)cc(O)c3c(=O)c2O)ccc1O
f
C[Si](C)(C)O[Si](C)(C)O[Si](C)(C)C
f

Let's switch to this compound now.
## Input // return assay outcome for C/C=C/c1ccc(O)c(OC)c1
## Output f
